- Tested on: SF-268 CNS
- PROCEDURE_TEXT: NCI-60 one-dose screen, 48 h (100 = growth as untreated, 0 = no growth, -100 = all killed)
- STATED_CONDITIONS: 10 µM unless noted
This is part of a sample that, as a whole, favours compounds with a hit. Of some 83,000 tested, about 20% had one in any assay.
Assign growth to each entry below.
Give bare numbers, in %.

Provide growth, system SF-268 CNS, entry NS(=O)(=O)c1ccc(-n2nc(C(=O)N/N=C\c3ccc(F)cc3)cc2-c2ccc(Br)cc2)cc1
82.2

Record growth per entry; entries follow.
1. CN(C)CCCNc1nc2ccccc2c2c(=O)c3cc(F)ccc3sc12
2. CCCCC[C@H](O)C/C=C1/C(=O)C=C[C@@H]1C/C=C\CCCC(=O)O
3. O=C(CCN1C(=O)/C(=C/c2ccc(O)cc2)SC1=S)Nc1ccccc1
4. Cc1cccc2c3c(sc12)C(c1ccc(F)cc1)C(C#N)=C(N)O3 (stereo unspecified)
5. Oc1c(I)cc(I)cc1CNCCCN(Cc1ccccn1)Cc1ccccn1
6. NCCCNc1nc2ccccc2c2c(=O)c3cccc(F)c3sc12

[52.5, 67, 93.5, 27.8, -27.3, 45.9]

Record growth per entry; entries follow.
1. Cc1cc(O)c(C2=NN(c3ccc(S(N)(=O)=O)cc3)C(/C=C/c3ccccc3)C2)cc1Cl (stereo unspecified)
2. O=c1cc(SCc2ccccc2)nc[nH]1
3. CC1CN(C2CCCCC2)C(=S)N(c2ccccc2)C1=O (stereo unspecified)
4. O=C(/C=C/c1sc(Cl)nc1Cl)c1ccc(F)cc1

[24.1, 106, 102, 92.8]
